test system: OVCAR-3 ovarian; assay: NCI tumour cell line growth inhibition, 48 h
Assay readout: TGI

// worked examples, TGI included
Compound: CC1=C(C(=O)NNC(=O)c2ccccc2O)CC(C(=O)NNC(=O)c2ccccc2O)=C(C)N1
TGI: > 23.4 µM

Compound: CC(C)NC(=O)OCc1c(COC(=O)NC(C)C)c(-c2cc[n+](COC(=O)Cc3ccccc3)cc2)n2c1CCC2
TGI: > 100 µM

Compound: CCOC(=O)c1c(Br)c(-c2ccc([N+](=O)[O-])cc2)c(Br)n1C
TGI: > 10 µM

Compound: C[C@@]12C[C@@H](c3ccccc3O1)N1CCCSC1=N2
TGI: > 100 µM

Compound: CN(CCCNC(=O)c1cn(C)c2c1ccc1ccccc12)CCCNC(=O)c1cn(C)c2c1ccc1ccccc12
TGI: 2.84 µM

Give one value of TGI per listed compound.
1. CC(O)(c1ccc(OCCC[N+](C)(C)C)cc1)C(C)(O)c1ccc(OCCC[N+](C)(C)C)cc1 (configuration not stated)
2. Cc1ccc2c(c1)C(=O)/C(=C/c1cccc(OCC(=O)c3ccc(Cl)cc3)c1)CS2
3. O=C(O)C1Cc2[nH]c3ccccc3c2C2CCCC12 (configuration not stated)

*A*
["> 100 µM", "18 µM", "> 100 µM"]
